A collection of molecules and their measured IC50
tested on: MCF7; experiment: Antiproliferative activity against human MCF7 cells after 48 hrs by MTT assay; format: functional, cell-based; conditions: MCF7, 48 h
Note: unit µg/mL is implicit; provide only the numeric part.

- molecule: "Cc1ccc(N2CCN(C(=O)/C=C/c3ccc(O)c(O)c3)CC2)c(C)c1"
  IC50, µg/mL: 0.78
- molecule: "O=C(/C=C/c1ccc(O)c(O)c1)N1CCN(c2ccccc2Cl)CC1"
  IC50, µg/mL: 1.36
- molecule: "O=C(/C=C/c1ccc(O)c(O)c1)N1CCN(c2ccccn2)CC1"
  IC50, µg/mL: 1.82
- molecule: "O=C(/C=C/c1ccc(O)c(O)c1)N1CCN(C(c2ccccc2)c2ccccc2)CC1"
  IC50, µg/mL: 0.32

Recorded IC50 of `O=C(/C=C/c1ccc(O)c(O)c1)N1CCN(c2cccc(Cl)c2)CC1` , please.
1.34

`O=C(/C=C/c1ccc(O)c(O)c1)N1CCN(Cc2ccccc2)CC1` , same question.
1.48

`O=C(/C=C/c1ccc(O)c(O)c1)N1CCN(c2ccccc2F)CC1` , same question.
1.38

`CCN1CCN(C(=O)/C=C/c2ccc(O)c(O)c2)CC1` , same question.
2.06

`O=C(/C=C/c1ccc(O)c(O)c1)N1CCN(c2cccc(Cl)c2Cl)CC1` , same question.
1.12

`O=C(/C=C/c1ccc(O)c(O)c1)N1CCN(c2ccc(F)cc2)CC1` , same question.
1.44

`O=C(/C=C/c1ccc(O)c(O)c1)N1CCN(c2cccc(C(F)(F)F)c2)CC1` , same question.
1.24

`COc1cccc(N2CCN(C(=O)/C=C/c3ccc(O)c(O)c3)CC2)c1` , same question.
0.92

`COc1ccc(N2CCN(C(=O)/C=C/c3ccc(O)c(O)c3)CC2)cc1` , same question.
0.52

`O=C(/C=C/c1ccc(O)c(O)c1)N1CCN(c2ccc(Cl)c(Cl)c2)CC1` , same question.
1.28

`O=C(/C=C/c1ccc(O)c(O)c1)N1CCN(c2ccccc2)CC1` , same question.
1.03

`COc1ccc(/C=C\c2cc(OC)c(OC)c(OC)c2)cc1O` , same question.
0.21

O=C(/C=C/c1ccc(O)c(O)c1)N1CCN(C(c2ccccc2)c2ccc(Cl)cc2)CC1 (stereo unspecified) , same question.
0.48

`O=C(/C=C/c1ccc(O)c(O)c1)N1CCN(C(c2ccc(F)cc2)c2ccc(F)cc2)CC1` , same question.
0.43

`COc1ccccc1N1CCN(C(=O)/C=C/c2ccc(O)c(O)c2)CC1` , same question.
0.54

`O=C(/C=C/c1ccc(O)c(O)c1)N1CCN(c2ccc([N+](=O)[O-])cc2)CC1` , same question.
1.14

`COc1cc2c(c(OC)c1OC)-c1ccc(OC)c(=O)cc1[C@@H](NC(C)=O)CC2` , same question.
0.39

---

A collection of compounds and their measured log10 of IC50
biological target: Tubulin (Bos taurus, UniProt Q6B856+Q862L2+Q862F3); assay: Inhibition of bovine brain tubulin polymerization after 20 mins by turbidimetric method
Please interpret these as log10 of IC50 where IC50 is in µM.

- compound: "O=C(/C=C/c1ccc(O)c(O)c1)N1CCN(c2ccccc2F)CC1"
  experimentalValue: 0.89
- compound: "O=C(/C=C/c1ccc(O)c(O)c1)N1CCN(C(c2ccccc2)c2ccc(Cl)cc2)CC1 (centres undefined)"
  experimentalValue: 0.19
- compound: "O=C(/C=C/c1ccc(O)c(O)c1)N1CCN(c2ccc(F)cc2)CC1"
  experimentalValue: 0.87
- compound: "O=C(/C=C/c1ccc(O)c(O)c1)N1CCN(c2ccc([N+](=O)[O-])cc2)CC1"
  experimentalValue: 0.69
- compound: "O=C(/C=C/c1ccc(O)c(O)c1)N1CCN(c2cccc(Cl)c2Cl)CC1"
  experimentalValue: 0.65
- compound: "Cc1ccc(N2CCN(C(=O)/C=C/c3ccc(O)c(O)c3)CC2)c(C)c1"
  experimentalValue: 0.47
- compound: "COc1cccc(N2CCN(C(=O)/C=C/c3ccc(O)c(O)c3)CC2)c1"
  experimentalValue: 0.49
- compound: "O=C(/C=C/c1ccc(O)c(O)c1)N1CCN(Cc2ccccc2)CC1"
  experimentalValue: 0.97

Recorded log10 of IC50 of `O=C(/C=C/c1ccc(O)c(O)c1)N1CCN(c2ccccn2)CC1` , please.
1.06

`O=C(/C=C/c1ccc(O)c(O)c1)N1CCN(c2cccc(Cl)c2)CC1` , same question.
0.72

---

experiment: Antiproliferative activity against mouse B16F10 cells after 48 hrs by MTT assay; type: functional, cell-based; conditions: B16-F10, 48 h
resultType: IC50

Consider the worked cases shown below.
- compound: "CCN1CCN(C(=O)/C=C/c2ccc(O)c(O)c2)CC1"
  experimentalValue: "6.44 µg/mL"
- compound: "O=C(/C=C/c1ccc(O)c(O)c1)N1CCN(C(c2ccc(F)cc2)c2ccc(F)cc2)CC1"
  experimentalValue: "0.52 µg/mL"
- compound: "O=C(/C=C/c1ccc(O)c(O)c1)N1CCN(c2cccc(Cl)c2)CC1"
  experimentalValue: "1.71 µg/mL"
- compound: "O=C(/C=C/c1ccc(O)c(O)c1)N1CCN(c2ccccn2)CC1"
  experimentalValue: "3.01 µg/mL"
- compound: "O=C(/C=C/c1ccc(O)c(O)c1)N1CCN(c2ccccc2Cl)CC1"
  experimentalValue: "1.82 µg/mL"

Now let's try a different one.
Recorded IC50 of COc1cc2c(c(OC)c1OC)-c1ccc(OC)c(=O)cc1[C@@H](NC(C)=O)CC2 [COLCHICINE] , please.
0.48 µg/mL

---

biological target: Tubulin (Bos taurus, UniProt Q6B856+Q862L2+Q862F3); experiment: Inhibition of bovine brain tubulin polymerization after 20 mins by turbidimetric method
resultType: IC50 (µM)
Note: unit µM is implicit; provide only the numeric part.

Consider the worked cases shown below.
- chemicalSmiles: "O=C(/C=C/c1ccc(O)c(O)c1)N1CCN(C(c2ccc(F)cc2)c2ccc(F)cc2)CC1"
  targetOfAssay: "Tubulin (Bos taurus, UniProt Q6B856+Q862L2+Q862F3)"
  displayUnit: "µM"
  IC50: 1.44
- chemicalSmiles: "O=C(/C=C/c1ccc(O)c(O)c1)N1CCN(c2ccccc2)CC1"
  targetOfAssay: "Tubulin (Bos taurus, UniProt Q6B856+Q862L2+Q862F3)"
  displayUnit: "µM"
  IC50: 3.14
- chemicalSmiles: "O=C(/C=C/c1ccc(O)c(O)c1)N1CCN(c2cccc(C(F)(F)F)c2)CC1"
  targetOfAssay: "Tubulin (Bos taurus, UniProt Q6B856+Q862L2+Q862F3)"
  displayUnit: "µM"
  IC50: 5.89
- chemicalSmiles: "O=C(/C=C/c1ccc(O)c(O)c1)N1CCN(C(c2ccccc2)c2ccccc2)CC1"
  targetOfAssay: "Tubulin (Bos taurus, UniProt Q6B856+Q862L2+Q862F3)"
  displayUnit: "µM"
  IC50: 0.92
- chemicalSmiles: "O=C(/C=C/c1ccc(O)c(O)c1)N1CCN(c2ccc(Cl)c(Cl)c2)CC1"
  targetOfAssay: "Tubulin (Bos taurus, UniProt Q6B856+Q862L2+Q862F3)"
  displayUnit: "µM"
  IC50: 4.93

What measured IC50 is associated with `CCN1CCN(C(=O)/C=C/c2ccc(O)c(O)c2)CC1` on Tubulin (Bos taurus, UniProt Q6B856+Q862L2+Q862F3)?
12.78

---

assay: Antiproliferative activity against mouse B16F10 cells after 48 hrs by MTT assay; format: functional, cell-based; settings: B16-F10, 48 h
resultType: IC50 (µg/mL)
Note: unit µg/mL is implicit; provide only the numeric part.

Consider the worked cases shown below.
- chemicalSmiles: "COc1ccc(N2CCN(C(=O)/C=C/c3ccc(O)c(O)c3)CC2)cc1"
  displayUnit: "µg/mL"
  IC50: 1.21
- chemicalSmiles: "O=C(/C=C/c1ccc(O)c(O)c1)N1CCN(Cc2ccccc2)CC1"
  displayUnit: "µg/mL"
  IC50: 3.12
- chemicalSmiles: "O=C(/C=C/c1ccc(O)c(O)c1)N1CCN(c2ccccc2)CC1"
  displayUnit: "µg/mL"
  IC50: 1.78

Recorded IC50 of `O=C(/C=C/c1ccc(O)c(O)c1)N1CCN(c2cccc(Cl)c2Cl)CC1` , please.
2.01

---

biological target: Tubulin (Bos taurus, UniProt Q6B856+Q862L2+Q862F3); assay: Inhibition of bovine brain tubulin polymerization after 20 mins by turbidimetric method
A collection of molecules and their measured IC50
Note: unit nM is implicit; provide only the numeric part.

Consider the worked cases shown below.
- chemicalSmiles: "COc1ccc(N2CCN(C(=O)/C=C/c3ccc(O)c(O)c3)CC2)cc1"
  IC50 / nM: 1860
- chemicalSmiles: "COc1ccccc1N1CCN(C(=O)/C=C/c2ccc(O)c(O)c2)CC1"
  IC50 / nM: 1720

Now let's try a different one.
Recorded IC50 of `O=C(/C=C/c1ccc(O)c(O)c1)N1CCN(c2ccccc2Cl)CC1` , please.
5460
